Target: PI3K γ (Homo sapiens (Human))
Sequence (P48736 whole entry, species assumed): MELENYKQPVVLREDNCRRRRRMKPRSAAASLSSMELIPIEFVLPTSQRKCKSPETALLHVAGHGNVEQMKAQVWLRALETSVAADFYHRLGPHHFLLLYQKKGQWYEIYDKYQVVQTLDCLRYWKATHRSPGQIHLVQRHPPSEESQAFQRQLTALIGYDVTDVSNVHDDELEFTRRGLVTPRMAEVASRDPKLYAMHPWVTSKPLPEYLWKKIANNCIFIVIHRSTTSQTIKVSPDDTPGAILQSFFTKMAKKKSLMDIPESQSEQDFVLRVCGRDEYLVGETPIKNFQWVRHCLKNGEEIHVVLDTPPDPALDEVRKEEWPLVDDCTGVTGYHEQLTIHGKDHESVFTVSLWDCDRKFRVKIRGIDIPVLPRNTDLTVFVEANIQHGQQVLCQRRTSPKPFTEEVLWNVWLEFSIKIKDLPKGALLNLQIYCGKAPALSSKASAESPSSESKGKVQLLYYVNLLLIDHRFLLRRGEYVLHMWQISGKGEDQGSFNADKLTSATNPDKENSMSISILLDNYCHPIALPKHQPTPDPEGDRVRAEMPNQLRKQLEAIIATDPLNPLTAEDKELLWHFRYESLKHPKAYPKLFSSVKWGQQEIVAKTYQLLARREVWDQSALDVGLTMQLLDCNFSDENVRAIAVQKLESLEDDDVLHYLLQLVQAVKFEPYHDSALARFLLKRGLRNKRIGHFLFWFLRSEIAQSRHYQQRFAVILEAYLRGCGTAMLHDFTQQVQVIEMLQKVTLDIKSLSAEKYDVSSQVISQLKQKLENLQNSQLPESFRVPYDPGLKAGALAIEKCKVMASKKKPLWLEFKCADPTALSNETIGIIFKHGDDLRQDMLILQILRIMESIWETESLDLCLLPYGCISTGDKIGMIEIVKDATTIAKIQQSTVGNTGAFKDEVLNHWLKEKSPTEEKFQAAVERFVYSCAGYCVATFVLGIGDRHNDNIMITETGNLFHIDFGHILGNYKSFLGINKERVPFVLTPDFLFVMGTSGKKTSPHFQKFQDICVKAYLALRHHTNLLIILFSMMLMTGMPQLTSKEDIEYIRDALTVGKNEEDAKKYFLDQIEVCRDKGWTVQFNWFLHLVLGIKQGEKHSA
Assay: PI3K γ kinase assay
Assay type: biochemical
pIC50: −log10 of the molar value.
PROPERTY NAME: pIC50

Nc1ncnc2c1c(-c1cc3cc(O)ccc3[nH]1)nn2Cc1cccnc1 has a reported pIC50 of < 6.30

###

Kindly state pIC50 for each of the entries shown.
Molecular target: PI3K δ (Homo sapiens (Human), UniProt O00329)
Sequence (O00329 whole entry, species assumed): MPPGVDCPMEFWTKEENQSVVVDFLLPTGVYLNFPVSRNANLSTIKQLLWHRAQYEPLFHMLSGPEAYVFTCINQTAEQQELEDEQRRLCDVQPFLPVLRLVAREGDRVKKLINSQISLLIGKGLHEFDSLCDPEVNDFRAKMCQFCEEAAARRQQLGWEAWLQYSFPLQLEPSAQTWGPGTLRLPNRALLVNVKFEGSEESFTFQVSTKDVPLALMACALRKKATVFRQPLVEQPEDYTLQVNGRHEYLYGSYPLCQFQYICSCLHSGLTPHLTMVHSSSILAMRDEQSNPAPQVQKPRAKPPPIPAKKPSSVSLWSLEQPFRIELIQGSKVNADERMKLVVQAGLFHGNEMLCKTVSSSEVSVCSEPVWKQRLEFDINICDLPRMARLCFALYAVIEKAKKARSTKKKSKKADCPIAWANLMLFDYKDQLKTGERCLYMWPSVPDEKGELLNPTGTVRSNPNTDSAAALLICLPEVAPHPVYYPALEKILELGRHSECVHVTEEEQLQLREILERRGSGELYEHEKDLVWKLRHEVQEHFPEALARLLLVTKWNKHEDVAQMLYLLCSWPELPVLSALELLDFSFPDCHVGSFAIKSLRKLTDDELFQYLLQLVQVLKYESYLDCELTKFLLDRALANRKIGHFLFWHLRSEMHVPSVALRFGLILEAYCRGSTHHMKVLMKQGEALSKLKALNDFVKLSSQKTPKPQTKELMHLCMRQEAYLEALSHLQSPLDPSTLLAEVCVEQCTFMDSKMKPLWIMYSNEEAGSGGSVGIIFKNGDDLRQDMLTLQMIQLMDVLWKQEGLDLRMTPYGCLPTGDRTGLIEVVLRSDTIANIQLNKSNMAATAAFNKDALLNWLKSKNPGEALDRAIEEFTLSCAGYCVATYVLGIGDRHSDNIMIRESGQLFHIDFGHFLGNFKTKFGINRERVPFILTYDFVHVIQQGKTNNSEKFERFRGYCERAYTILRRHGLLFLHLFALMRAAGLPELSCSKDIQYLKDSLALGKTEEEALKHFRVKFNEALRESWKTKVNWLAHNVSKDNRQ
Sequence (P27986 whole entry partner, species assumed): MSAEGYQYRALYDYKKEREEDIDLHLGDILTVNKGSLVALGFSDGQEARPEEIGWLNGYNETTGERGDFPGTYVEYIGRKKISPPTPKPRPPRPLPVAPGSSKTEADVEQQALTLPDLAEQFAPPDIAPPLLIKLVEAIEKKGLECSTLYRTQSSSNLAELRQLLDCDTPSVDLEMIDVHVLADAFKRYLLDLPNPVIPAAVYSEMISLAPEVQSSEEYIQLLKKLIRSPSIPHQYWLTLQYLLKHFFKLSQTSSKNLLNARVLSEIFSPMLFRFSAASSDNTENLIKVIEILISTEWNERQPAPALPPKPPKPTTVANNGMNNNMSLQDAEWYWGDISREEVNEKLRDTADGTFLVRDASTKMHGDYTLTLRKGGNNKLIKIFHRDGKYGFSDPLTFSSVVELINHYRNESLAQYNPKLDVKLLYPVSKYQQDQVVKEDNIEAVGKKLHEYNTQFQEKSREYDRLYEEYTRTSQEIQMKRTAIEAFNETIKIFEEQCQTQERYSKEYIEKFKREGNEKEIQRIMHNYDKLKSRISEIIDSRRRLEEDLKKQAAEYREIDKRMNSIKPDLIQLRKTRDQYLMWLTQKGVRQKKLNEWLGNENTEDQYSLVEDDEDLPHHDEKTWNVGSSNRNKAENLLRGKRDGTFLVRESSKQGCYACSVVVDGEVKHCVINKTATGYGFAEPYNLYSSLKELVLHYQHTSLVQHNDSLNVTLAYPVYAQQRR
Experiment: PI3K δ kinase assay
Format: biochemical
Settings: Table 2
pIC50: −log10 of the molar value.

Nc1ncnc2c1c(-c1cc3cc(O)ccc3[nH]1)nn2C1CCOCC1 has a reported pIC50 of > 7.00

CC(=O)N1CCC(n2nc(-c3cc4cc(O)ccc4[nH]3)c3c(N)ncnc32)CC1 has a reported pIC50 of < 6.30

COc1ccc(Cl)c2cc(-c3nn(C4CCOCC4)c4ncnc(N)c34)[nH]c12 has a reported pIC50 of < 6.30

CCOC(=O)Cn1nc(-c2cc3cc(O)ccc3[nH]2)c2c(N)ncnc21 has a reported pIC50 of < 6.30

CC(=O)N1CCC(n2nc(-c3cc4ccc(O)cc4[nH]3)c3c(N)ncnc32)CC1 has a reported pIC50 of > 7.60

Nc1ncnc2c1c(-c1cc3cc(O)ccc3[nH]1)nn2C1CC(N2CCOCC2)C1 (centres unmarked) has a reported pIC50 of > 6.30

CC(C)n1nc(-c2cc3c(Cl)ccc(O)c3[nH]2)c2c(N)ncnc21 has a reported pIC50 of < 6.30

Nc1ncnc2c1c(-c1cc3cc(O)cc(Cl)c3[nH]1)nn2C1CCOCC1 has a reported pIC50 of > 7.60

###

Molecular target: mTORC (Homo sapiens (Human), UniProt P42345)
Sequence (P42345 1360-2549): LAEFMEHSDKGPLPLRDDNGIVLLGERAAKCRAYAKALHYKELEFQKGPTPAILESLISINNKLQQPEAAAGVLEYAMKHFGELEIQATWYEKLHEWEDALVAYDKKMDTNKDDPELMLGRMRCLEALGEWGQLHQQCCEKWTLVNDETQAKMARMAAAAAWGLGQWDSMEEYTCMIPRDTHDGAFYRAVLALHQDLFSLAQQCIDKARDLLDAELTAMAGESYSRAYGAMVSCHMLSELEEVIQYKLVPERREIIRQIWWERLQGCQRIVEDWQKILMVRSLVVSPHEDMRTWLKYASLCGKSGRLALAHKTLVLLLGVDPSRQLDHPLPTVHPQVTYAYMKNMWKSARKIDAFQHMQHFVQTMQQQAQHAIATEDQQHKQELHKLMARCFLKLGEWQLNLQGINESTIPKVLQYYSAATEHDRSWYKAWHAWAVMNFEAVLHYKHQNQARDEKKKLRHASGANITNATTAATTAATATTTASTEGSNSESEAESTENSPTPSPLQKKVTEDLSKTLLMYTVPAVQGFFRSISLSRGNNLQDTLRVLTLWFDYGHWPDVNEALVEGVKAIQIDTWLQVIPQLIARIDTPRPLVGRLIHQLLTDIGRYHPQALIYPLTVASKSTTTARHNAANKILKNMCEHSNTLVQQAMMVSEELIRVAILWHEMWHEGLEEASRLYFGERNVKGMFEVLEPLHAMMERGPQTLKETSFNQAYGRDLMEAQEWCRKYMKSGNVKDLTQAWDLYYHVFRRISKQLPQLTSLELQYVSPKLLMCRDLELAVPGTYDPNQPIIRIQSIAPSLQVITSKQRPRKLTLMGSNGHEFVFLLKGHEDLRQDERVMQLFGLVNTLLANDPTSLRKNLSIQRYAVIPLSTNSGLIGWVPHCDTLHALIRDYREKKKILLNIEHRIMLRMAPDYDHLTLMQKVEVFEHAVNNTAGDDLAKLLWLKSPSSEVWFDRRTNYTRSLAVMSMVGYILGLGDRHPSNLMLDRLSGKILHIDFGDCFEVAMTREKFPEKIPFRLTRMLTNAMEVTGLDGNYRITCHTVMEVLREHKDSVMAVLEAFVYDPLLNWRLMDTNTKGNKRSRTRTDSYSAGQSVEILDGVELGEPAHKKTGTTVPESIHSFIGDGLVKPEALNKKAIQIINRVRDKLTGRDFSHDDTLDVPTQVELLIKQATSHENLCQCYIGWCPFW
PROPERTY NAME: IC50

IC50 of CC(C)n1nc(-c2cc3cc(O)c(Cl)cc3[nH]2)c2c(N)ncnc21 [Compound 32] , assay on mTORC (Homo sapiens (Human), UniProt P42345), is < 500 nM

IC50 of Nc1ncnc2c1c(-c1cc3ccc(O)cc3[nH]1)nn2C1CCOCC1 [Compound 60] , assay on mTORC (Homo sapiens (Human), UniProt P42345), is < 100 nM

IC50 of Nc1ncnc2c1c(-c1cc3cc(O)ccc3[nH]1)nn2C1CC(O)C1 (centres unmarked) [Compound 54] , assay on mTORC (Homo sapiens (Human), UniProt P42345), is < 25 nM

IC50 of CC(C)n1nc(-c2cc3c(O)cccc3[nH]2)c2c(N)ncnc21 [Compound 37] , assay on mTORC (Homo sapiens (Human), UniProt P42345), is > 500 nM

IC50 of CCOC(=O)Cn1nc(-c2cc3cc(O)ccc3[nH]2)c2c(N)ncnc21 [Compound 28] , assay on mTORC (Homo sapiens (Human), UniProt P42345), is < 500 nM

IC50 of Nc1ncnc2c1c(-c1cc3c(Cl)cccc3[nH]1)nn2C1CCOCC1 [Compound 48] , assay on mTORC (Homo sapiens (Human), UniProt P42345), is < 50 nM

IC50 of CC(C)n1nc(-c2cc3cccc(Cl)c3[nH]2)c2c(N)ncnc21 [Compound 50] , assay on mTORC (Homo sapiens (Human), UniProt P42345), is < 50 nM

IC50 of Nc1ncnc2c1c(-c1cc3cccc(O)c3[nH]1)nn2C1CCCC1 [Compound 36] , assay on mTORC (Homo sapiens (Human), UniProt P42345), is < 10 nM
